All figures here come from paper PMC10100771.

Tested on: E. coli J53-AR13438
Here the recorded MIC is given for each entry.
Answer in µg/mL, number only, no unit symbol.

Solved cases (3 shown):
smi: C[C@H]1COc2c(N3CCN(C)CC3)c(F)cc3c(=O)c(C(=O)O)cn1c23
MIC (µg/mL): 0.03
//
smi: CCN1CCN(C(=O)N[C@@H](C(=O)N[C@@H]2C(=O)N3[C@@H]2SC(C)(C)[C@@H]3C(=O)O)c2ccccc2)C(=O)C1=O
MIC (µg/mL): 64
//
smi: CO/N=C(\C(=O)N[C@@H]1C(=O)N2C(C(=O)O)=C(COC(C)=O)CS[C@H]12)c1csc(N)n1
MIC (µg/mL): 32

Enquiry: Form entry - test system: E. coli J53-AR13438; read-out: MIC; molecule: CC(C)(O/N=C(\C(=O)N[C@@H]1C(=O)N2C(C(=O)[O-])=C(C[n+]3ccccc3)CS[C@H]12)c1csc(N)n1)C(=O)O
Return: 1020

Enquiry: Give E. coli J53-AR13438 MIC for C[C@@H]1O[C@@H]1P(=O)(O)O
Return: 0.5

Enquiry: Param readout = MIC; param system = E. coli J53-AR13438; param query = C[C@@H](O)[C@H]1C(=O)N2C(C(=O)O)=C(S[C@@H]3CN[C@H](C(=O)N(C)C)C3)[C@H](C)[C@H]12 ; response: value
Return: 0.06

Enquiry: Hello, I am looking for reported MIC with E. coli J53-AR13438 for CO/N=C(\C(=O)N[C@@H]1C(=O)N2C(C(=O)O)=C(COC(N)=O)CS[C@H]12)c1ccco1 . Could you help?
Return: 256

###

The reader will find MIC measurements below, all made with E. coli DH5α.
Express the result in µg/mL but write the number alone.

smi: C[C@@H](O)[C@H]1C(=O)N2C(C(=O)O)=C(S[C@@H]3CN[C@H](C(=O)N(C)C)C3)[C@H](C)[C@H]12
quantity-unit: µg/mL
MIC: 0.03

Enquiry: Can you look up MIC on E. coli DH5α for C[C@H]1COc2c(N3CCN(C)CC3)c(F)cc3c(=O)c(C(=O)O)cn1c23 ?
Return: 0.03

Enquiry: Query MIC on E. coli DH5α for CCN1CCN(C(=O)N[C@@H](C(=O)N[C@@H]2C(=O)N3[C@@H]2SC(C)(C)[C@@H]3C(=O)O)c2ccccc2)C(=O)C1=O
Return: 1

Enquiry: Short answer please: MIC, E. coli DH5α, entry CC(C)(O/N=C(\C(=O)N[C@@H]1C(=O)N2C(C(=O)[O-])=C(C[n+]3ccccc3)CS[C@H]12)c1csc(N)n1)C(=O)O
Return: 0.25

Enquiry: Could you share what MIC was measured for C[C@@H](O)[C@H]1C(=O)N2C(C(=O)O)=C(SCCN=CN)C[C@H]12 , tested on E. coli DH5α?
Return: 0.25

###

Record type: MIC measurement. Applies to: E. coli J53-AR13438
API: value field is a number in µg/mL; no unit string.

// worked examples, MIC included
molecule: CO/N=C(\C(=O)N[C@@H]1C(=O)N2C(C(=O)[O-])=C(C[N+]3(C)CCCC3)CS[C@H]12)c1csc(N)n1 [FEP, cefepime]
MIC, µg/mL: 32

molecule: C[C@@H](O)[C@H]1C(=O)N2C(C(=O)O)=C(SCCN=CN)C[C@H]12
MIC, µg/mL: 0.5

Enquiry: I am curious: what MIC value has been reported for C[C@H]1[C@H](NC(=O)/C(=N\OC(C)(C)C(=O)O)c2csc(N)n2)C(=O)N1S(=O)(=O)O ?
Return: 32

Enquiry: Which MIC reading was recorded for the molecule NCC[C@H](O)C(=O)N[C@@H]1C[C@H](N)[C@@H](O[C@H]2O[C@H](CN)[C@@H](O)[C@H](O)[C@H]2O)[C@H](O)[C@H]1O[C@H]1O[C@H](CO)[C@@H](O)[C@H](N)[C@H]1O ?
Return: 2
